inhibition at 20 µM by entry:
- Tested System: cdc42 (Homo sapiens)
- Construct: made in house
- Sequence (P60953 whole entry): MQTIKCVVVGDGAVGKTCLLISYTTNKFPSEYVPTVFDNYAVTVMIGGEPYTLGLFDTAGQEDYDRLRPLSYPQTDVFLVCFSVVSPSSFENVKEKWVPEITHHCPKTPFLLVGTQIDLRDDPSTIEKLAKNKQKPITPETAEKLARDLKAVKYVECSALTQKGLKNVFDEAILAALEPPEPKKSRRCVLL
- Test Name: Cdc42 GTP Binding Domain Inhibition Assay
- Condition Info: read-out: Cdc42: % inh.

Worked cases, answers included:
Cc1c(-c2ccn(C(C)C)n2)cn2nc(-c3nccn3C)nc(Nc3ccn(C(C)C)n3)c12    50 to 75%
COc1cccc(-c2cn3nc(-c4nccn4C)nc(N[C@H]4C[C@H](OC)C4)c3c2-c2ccccn2)c1F    26 to 49%
CCn1ccc(-c2cn3nc(-c4nccn4C)nc(Nc4cc(OC)ncn4)c3c2C)n1    76 to 100%

The measured inhibition at 20 µM associated with COCCO[C@H]1C[C@H](Nc2nc(-c3nccn3C)nn3cc(-c4cccc(OC)c4F)c(-c4ccccc4)c23)C1 reads 26 to 49%
